System: PPARg DBDmut:RXRa IVT, anti-PPARg (DBD mutation: PPARg1 K132A/R137A, NR concentration 270 nM, RXRa partner concentration 90 nM)
procedure-details: PBM binding z-score (relative to random genomic background probes); higher = stronger binding; sequences stand for … in GC…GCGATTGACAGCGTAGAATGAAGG
Is PBM binding z-score at least 0.5? Then Met. If not, Not met.

| seq | class-label |
| --- | --- |
| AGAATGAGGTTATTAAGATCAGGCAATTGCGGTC | Not met |
| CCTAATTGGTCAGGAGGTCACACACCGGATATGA | Met |
| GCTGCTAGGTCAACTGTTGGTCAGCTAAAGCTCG | Not met |
| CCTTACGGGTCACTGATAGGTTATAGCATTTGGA | Met |
| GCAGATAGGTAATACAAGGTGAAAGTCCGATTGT | Met |
| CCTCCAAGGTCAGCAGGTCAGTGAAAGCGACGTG | Not met |
| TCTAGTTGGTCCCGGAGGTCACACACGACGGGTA | Not met |
| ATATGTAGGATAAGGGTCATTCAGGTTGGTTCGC | Met |
| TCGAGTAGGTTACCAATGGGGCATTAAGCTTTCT | Not met |
| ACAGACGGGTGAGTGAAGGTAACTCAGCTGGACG | Not met |
| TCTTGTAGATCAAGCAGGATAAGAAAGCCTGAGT | Met |
| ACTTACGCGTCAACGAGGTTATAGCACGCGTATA | Met |
| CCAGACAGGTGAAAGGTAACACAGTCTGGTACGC | Not met |
| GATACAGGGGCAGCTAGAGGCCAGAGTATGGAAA | Not met |
| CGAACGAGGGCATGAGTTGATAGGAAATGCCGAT | Not met |
| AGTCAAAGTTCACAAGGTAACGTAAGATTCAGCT | Met |
| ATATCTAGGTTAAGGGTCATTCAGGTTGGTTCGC | Met |
| CGTCCAAGGTCAATGCTAGGTGAGTGAAAGCATT | Not met |
| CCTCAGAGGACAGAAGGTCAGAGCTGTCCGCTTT | Not met |
| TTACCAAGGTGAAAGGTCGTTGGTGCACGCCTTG | Not met |
| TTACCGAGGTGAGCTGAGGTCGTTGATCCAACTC | Not met |
| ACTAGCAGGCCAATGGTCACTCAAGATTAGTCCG | Not met |
| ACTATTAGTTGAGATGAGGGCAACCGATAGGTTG | Met |
| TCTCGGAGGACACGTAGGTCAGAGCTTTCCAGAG | Not met |
| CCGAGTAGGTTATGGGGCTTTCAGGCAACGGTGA | Not met |
| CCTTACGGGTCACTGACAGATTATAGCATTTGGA | Met |

* * *

System: VDR homodimer (NR concentration 270 nM)
procedure-details: PBM binding z-score (relative to random genomic background probes); higher = stronger binding; sequences stand for … in GC…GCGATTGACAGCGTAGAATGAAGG
recorded-metric: PBM binding z-score

| seq | assay-result |
| --- | --- |
| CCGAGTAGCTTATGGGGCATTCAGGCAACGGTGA | -0.541 |
| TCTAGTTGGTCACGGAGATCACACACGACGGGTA | 0.211 |
| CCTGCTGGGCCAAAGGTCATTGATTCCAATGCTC | 2.24 |
| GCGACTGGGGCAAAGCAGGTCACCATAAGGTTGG | 0.256 |
| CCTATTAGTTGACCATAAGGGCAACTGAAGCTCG | 0.824 |
| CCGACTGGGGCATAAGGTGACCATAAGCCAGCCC | -0.621 |
| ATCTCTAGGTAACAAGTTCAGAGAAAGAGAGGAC | 2.72 |
| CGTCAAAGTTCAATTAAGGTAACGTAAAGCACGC | 3.71 |
| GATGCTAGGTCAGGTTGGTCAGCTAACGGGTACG | 0.958 |
| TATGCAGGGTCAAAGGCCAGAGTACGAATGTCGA | 2.66 |
| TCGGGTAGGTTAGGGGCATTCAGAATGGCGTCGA | 1.79 |
| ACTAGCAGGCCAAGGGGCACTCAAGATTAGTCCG | 0.169 |
| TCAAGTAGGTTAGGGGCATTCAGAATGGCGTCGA | 1.48 |
| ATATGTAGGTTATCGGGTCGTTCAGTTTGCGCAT | 2.55 |
| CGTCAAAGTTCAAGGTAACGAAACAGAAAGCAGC | 2.99 |
| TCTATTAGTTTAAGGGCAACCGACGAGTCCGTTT | 2.78 |
| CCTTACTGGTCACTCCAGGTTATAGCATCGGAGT | 0.805 |
| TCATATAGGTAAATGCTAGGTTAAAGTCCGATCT | 0.441 |
| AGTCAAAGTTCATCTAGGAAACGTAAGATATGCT | 4.34 |
| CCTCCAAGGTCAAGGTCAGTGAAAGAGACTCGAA | 2.98 |
| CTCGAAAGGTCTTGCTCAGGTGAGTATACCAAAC | -0.0365 |
| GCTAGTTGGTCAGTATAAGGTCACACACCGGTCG | 2.76 |
| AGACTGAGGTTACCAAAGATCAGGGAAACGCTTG | 0.497 |
| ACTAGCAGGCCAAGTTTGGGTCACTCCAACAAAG | 0.157 |
| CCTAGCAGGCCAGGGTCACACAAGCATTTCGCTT | 1.18 |
| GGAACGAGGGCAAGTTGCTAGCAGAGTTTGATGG | 1.44 |

* * *

Tested on: PPARa:RXRa (NR concentration 270 nM, RXRa partner concentration 90 nM)
procedure-details: PBM binding z-score (relative to random genomic background probes); higher = stronger binding; sequences stand for … in GC…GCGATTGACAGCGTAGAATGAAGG

| seq | PBM binding z-score |
| --- | --- |
| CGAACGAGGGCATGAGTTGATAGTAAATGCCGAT | 1.27 |
| TGAATGAGGTTATAAGATCAGGGAGCGTTGCAAA | 2.63 |
| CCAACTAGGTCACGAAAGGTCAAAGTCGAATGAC | 6.63 |
| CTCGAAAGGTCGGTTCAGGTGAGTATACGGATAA | 2.86 |
| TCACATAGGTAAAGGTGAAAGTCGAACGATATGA | 3.07 |
| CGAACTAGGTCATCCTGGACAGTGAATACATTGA | 4.76 |
| CAAACTAGGTCACGCAAGGTCAAAGTCGAATGAC | 6.75 |
| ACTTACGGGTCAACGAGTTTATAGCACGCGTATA | 5.4 |
| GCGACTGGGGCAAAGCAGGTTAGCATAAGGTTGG | 0.977 |
| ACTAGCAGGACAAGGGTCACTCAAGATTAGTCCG | 4.3 |
| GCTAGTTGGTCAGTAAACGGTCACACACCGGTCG | 0.395 |
| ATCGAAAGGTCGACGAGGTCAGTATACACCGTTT | 5.04 |

* * *

Tested on: PPARg DBDmut:RXRa IVT, anti-PPARg (DBD mutation: PPARg1 K132A/R137A, NR concentration 270 nM, RXRa partner concentration 90 nM)
procedure-details: PBM binding z-score (relative to random genomic background probes); higher = stronger binding; sequences stand for … in GC…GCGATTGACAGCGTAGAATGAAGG
# PBM binding z-score per entry

| seq | PBM binding z-score |
| --- | --- |
| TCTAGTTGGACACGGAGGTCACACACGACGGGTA | 0.713 |
| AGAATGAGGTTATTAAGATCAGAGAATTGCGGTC | 0.323 |
| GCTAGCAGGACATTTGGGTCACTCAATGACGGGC | -1.17 |
| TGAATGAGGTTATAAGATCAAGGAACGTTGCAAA | 0.592 |
| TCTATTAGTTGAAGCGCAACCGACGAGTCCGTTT | 0.484 |
| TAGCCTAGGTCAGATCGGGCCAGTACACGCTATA | -0.751 |
| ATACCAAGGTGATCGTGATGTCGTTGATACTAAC | 0.919 |
| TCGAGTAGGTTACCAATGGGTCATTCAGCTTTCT | 0.364 |
| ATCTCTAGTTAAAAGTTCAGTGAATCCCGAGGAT | 0.853 |
| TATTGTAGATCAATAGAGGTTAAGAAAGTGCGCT | 1.72 |
| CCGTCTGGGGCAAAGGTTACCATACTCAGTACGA | -0.238 |
| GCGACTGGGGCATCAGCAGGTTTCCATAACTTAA | -1.63 |
| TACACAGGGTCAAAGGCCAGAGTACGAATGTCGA | 0.992 |
| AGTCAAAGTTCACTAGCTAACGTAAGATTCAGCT | 0.927 |
| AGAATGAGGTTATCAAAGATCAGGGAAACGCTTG | 1.56 |
| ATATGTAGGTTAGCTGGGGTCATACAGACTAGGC | 1.52 |
| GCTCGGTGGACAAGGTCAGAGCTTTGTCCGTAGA | -1.69 |
| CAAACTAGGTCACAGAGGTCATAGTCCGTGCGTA | 4.61 |
| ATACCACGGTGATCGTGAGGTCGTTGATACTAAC | 0.255 |
| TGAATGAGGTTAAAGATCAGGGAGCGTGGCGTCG | 0.471 |
| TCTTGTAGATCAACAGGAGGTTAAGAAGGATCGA | 0.516 |
| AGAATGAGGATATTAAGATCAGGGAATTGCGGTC | 0.947 |
| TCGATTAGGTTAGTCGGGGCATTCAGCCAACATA | 0.0217 |
| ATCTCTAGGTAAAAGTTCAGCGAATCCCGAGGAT | 1.19 |
| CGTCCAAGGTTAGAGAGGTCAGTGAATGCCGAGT | -1.21 |
| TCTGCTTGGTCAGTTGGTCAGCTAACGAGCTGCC | -0.341 |
